Origin of the recorded values: patent USRE50528E1

# ASSAY_TARGET: p-EGFR del E746-A750 (Homo sapiens, UniProt P00533, DEL746-750)
# Construct: phosphorylation of mutant EGFR in NSCLC lines PC9; endogenous in cells; host or cells: PC9
# Sequence (P00533 with tags, fused parts or gaps DEL746-750): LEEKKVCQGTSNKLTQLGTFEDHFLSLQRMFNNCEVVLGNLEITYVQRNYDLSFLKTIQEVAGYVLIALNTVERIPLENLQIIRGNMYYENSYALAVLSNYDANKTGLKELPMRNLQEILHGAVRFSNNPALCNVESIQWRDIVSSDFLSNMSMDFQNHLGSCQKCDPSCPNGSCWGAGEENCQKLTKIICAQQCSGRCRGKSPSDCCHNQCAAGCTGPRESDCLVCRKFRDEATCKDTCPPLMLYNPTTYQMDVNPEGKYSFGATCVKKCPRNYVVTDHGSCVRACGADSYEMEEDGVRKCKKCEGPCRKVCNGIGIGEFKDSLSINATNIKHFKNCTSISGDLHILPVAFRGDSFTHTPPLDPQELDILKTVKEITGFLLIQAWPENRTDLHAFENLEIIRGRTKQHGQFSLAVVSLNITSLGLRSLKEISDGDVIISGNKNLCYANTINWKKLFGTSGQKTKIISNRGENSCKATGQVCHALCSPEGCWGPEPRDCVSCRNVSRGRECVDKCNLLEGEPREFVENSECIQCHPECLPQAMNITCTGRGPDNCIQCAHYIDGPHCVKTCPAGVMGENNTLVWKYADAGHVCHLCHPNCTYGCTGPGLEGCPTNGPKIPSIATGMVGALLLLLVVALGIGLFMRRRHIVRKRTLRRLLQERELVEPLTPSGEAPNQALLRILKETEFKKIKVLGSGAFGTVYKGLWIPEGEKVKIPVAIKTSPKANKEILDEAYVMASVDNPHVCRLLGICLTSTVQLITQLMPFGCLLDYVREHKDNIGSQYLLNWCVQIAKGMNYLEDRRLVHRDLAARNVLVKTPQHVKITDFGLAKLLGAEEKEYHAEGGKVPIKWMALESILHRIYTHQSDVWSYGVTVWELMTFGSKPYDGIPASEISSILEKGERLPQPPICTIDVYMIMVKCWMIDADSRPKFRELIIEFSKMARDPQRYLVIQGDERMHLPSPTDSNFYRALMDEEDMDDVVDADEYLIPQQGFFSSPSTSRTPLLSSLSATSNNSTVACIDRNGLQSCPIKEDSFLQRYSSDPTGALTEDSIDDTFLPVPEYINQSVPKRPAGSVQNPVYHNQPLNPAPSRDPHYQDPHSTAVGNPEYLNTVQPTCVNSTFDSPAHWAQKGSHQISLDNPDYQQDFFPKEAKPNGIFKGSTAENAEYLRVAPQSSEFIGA
# EXPERIMENT_NOTES: Western analysis, PC9 p-EGFR del E746-A750
# Type: cell-based
# CONDITION_PARAMETERS: H1299 vs PC9
REPORTED_ENDPOINT: Selectivity over wildtype: p-wildtype over p-EGFR del19

Examples with answers:
>>> df
                                   compound      measured
0  C=CC(=O)Nc1cc(Nc2nccc(-n3cc(CN(C)C)c(-c4ccccc4)n3)n2)c(OC)cc1N1CCOCC1 [Compound 73]   20-100 fold
1  C=CC(=O)Nc1cc(Nc2ncc(C)c(-n3cc(CN(C)C)c(C4CC4)n3)n2)c(OC)cc1N1CCOCC1 [Compound 122]   20-100 fold
2  C=CC(=O)Nc1cc(Nc2nccc(-n3cc(CN(C)C)c(C4CC4)n3)n2)c(OC)cc1N1CCOCC1 [Compound 74]  101-200 fold
3  C=CC(=O)Nc1cc(Nc2nccc(-n3cc(CN(C)C)c(C)n3)n2)c(OC)cc1N1CCOCC1 [Compound 46]   20-100 fold
4  C=CC(=O)Nc1cc(Nc2nccc(-n3cc(CN4CCC4)c(C)n3)n2)c(OC)cc1N1CCOCC1 [Compound 14]     >200 fold

Write down the reported Selectivity over wildtype: p-wildtype over p-EGFR del19 (system: p-EGFR del E746-A750 (Homo sapiens, UniProt P00533, DEL746-750)) of C=CC(=O)Nc1cc(Nc2nccc(-n3cc(CN4CCC4)c(-c4ccccc4)n3)n2)c(OC)cc1N1CCOCC1 [Compound 78]
>200 fold

Write down the reported Selectivity over wildtype: p-wildtype over p-EGFR del19 (system: p-EGFR del E746-A750 (Homo sapiens, UniProt P00533, DEL746-750)) of C=CC(=O)Nc1cc(Nc2ncc(C)c(-n3cc(CN4C[C@H](O)[C@H](OC)C4)c(C)n3)n2)c(OC)cc1N1CCOCC1 [Compound 26]
>200 fold

====

The following are reported pIC50 results, target or system KDR (Homo sapiens).
pIC50: −log10 of the molar value.

Examples with answers:
                            compound_smiles  measured
0  C=CC(=O)Nc1cc(Nc2ncc(C)c(-n3cc(CN4CCC4)cn3)n2)c(OC)cc1N1CCOCC1    < 6.00
1  C=CC(=O)Nc1cc(Nc2ncc(C)c(-n3cc(CN4C[C@H](O)[C@H](OC)C4)c(C)n3)n2)c(OC)cc1N1CCOCC1    < 6.00
2  C=CC(=O)Nc1cc(Nc2nccc(-n3cc(CN4CCC4)c(C4CC4)n3)n2)c(OC)cc1N1CCOCC1    < 6.00

Write down the reported pIC50 (system: KDR (Homo sapiens)) of `C=CC(=O)Nc1cc(Nc2ncc(C)c(-n3cc(CN4CC(O)C4)cn3)n2)c(OC)cc1N1CCOCC1`;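 also: purified full-length human KDR, 30 min preincubation with compound, then 1 h reaction with ATP and Ulight-Jak1 peptide substrate, phosphorylation read by Lance Europium antibody detection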
Sequence (P35968 20-1356): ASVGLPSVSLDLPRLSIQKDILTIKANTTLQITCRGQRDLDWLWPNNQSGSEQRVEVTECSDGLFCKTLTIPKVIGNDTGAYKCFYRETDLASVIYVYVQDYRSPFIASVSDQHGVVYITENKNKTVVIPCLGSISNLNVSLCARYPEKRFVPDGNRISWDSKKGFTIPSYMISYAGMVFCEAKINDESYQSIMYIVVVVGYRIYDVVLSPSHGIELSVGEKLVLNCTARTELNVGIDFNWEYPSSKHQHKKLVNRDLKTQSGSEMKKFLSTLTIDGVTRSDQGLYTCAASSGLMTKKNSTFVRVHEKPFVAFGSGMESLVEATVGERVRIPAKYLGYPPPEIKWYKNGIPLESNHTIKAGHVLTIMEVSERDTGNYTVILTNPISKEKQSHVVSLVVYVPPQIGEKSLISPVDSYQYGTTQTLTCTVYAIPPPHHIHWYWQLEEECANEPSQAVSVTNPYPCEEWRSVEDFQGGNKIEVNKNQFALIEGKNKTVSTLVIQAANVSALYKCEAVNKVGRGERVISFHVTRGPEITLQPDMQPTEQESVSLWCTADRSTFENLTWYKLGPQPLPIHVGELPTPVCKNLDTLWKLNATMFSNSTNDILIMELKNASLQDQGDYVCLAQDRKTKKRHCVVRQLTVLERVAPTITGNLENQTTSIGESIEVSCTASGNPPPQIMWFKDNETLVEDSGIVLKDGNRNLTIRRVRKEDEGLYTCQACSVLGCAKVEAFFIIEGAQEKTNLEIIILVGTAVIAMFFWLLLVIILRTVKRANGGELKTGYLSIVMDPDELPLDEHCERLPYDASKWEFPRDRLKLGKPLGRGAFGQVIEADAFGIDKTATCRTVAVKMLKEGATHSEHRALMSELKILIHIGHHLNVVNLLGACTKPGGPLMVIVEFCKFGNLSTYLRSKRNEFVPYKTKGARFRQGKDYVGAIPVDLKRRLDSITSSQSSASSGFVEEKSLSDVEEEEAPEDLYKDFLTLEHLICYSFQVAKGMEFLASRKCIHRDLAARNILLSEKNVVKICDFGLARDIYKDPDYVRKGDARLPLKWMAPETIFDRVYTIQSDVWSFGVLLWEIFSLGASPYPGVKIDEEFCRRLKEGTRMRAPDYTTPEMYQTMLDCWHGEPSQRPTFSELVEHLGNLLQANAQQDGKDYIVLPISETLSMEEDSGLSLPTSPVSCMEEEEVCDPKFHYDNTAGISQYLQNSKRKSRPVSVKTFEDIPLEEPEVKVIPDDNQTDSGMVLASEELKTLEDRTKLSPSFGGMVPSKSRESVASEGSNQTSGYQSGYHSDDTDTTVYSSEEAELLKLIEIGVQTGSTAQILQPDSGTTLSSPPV
6.00 to 6.70

====

This listing pairs compounds with measured pIC50.
# ASSAY_TARGET: EGFR mutant L858R (Homo sapiens, UniProt P00533, L858R)
# Construct: truncated human JAK3, EGFR mutants such as del E746-A750; purchased Carna Biosciences
# Sequence (P00533 669-1210 L858R limits assumed): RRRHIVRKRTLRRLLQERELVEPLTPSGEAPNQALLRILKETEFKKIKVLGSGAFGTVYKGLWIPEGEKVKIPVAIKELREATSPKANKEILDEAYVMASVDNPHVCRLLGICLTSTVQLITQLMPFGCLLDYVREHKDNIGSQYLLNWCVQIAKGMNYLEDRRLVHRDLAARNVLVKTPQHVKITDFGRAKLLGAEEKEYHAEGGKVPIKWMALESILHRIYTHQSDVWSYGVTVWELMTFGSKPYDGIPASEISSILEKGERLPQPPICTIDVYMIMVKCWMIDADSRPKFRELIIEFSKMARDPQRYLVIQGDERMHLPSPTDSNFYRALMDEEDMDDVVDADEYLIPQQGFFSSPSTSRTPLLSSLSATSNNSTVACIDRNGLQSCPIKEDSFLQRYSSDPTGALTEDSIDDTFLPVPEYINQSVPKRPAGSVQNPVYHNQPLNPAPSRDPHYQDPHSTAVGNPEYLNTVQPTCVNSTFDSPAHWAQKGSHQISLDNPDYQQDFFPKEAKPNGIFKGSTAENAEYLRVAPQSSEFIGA
# EXPERIMENT_NOTES: Kinase inhibition assay, EGFR L858R;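 also: truncated human EGFR L858R kinase with compound preincubation, ULight-PolyGT peptide phosphorylation read by Europium-antibody Lance detection, IC50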
# Type: biochemical
# CONDITION_PARAMETERS: read-out: EGFR mutants L858R
pIC50: −log10 of the molar value.

Examples with answers:
In [3]: df
Out[3]:
                                   compound  measured
0  C=CC(=O)Nc1cc(Nc2ncc(C)c(-n3cc(CN4CCC4)c(C4CC4)n3)n2)c(OC)cc1N1CCOCC1    > 7.70
1  C=CC(=O)Nc1cc(Nc2nccc(-n3cc(CN(C)C)c(C(C)(C)C)n3)n2)c(OC)cc1N(C)C1COC1    > 7.70
2  C=CC(=O)Nc1cc(Nc2nccc(-n3cc(CN(C)C)c(-c4ccccc4)n3)n2)c(OC)cc1N(C)C1COC1    > 7.70

Please report pIC50 for the following compound: C=C(F)C(=O)Nc1cc(Nc2nccc(-n3cc(CN4CCC4)c(-c4ccccc4)n3)n2)c(OC)cc1N1CCOCC1 [Compound 159, reference compound]
< 6.00

Please report pIC50 for the following compound: `C=CC(=O)Nc1cc(Nc2nccc(-n3cc(CN(C)C)c(-c4ccccc4)n3)n2)c(OC)cc1N1CCN(C(C)=O)CC1`
> 7.70

Please report pIC50 for the following compound: `C=CC(=O)Nc1cc(Nc2nccc(-n3cc(CN4CC[C@@H](N(C)C)C4)cn3)n2)c(OC)cc1N1CCOCC1`
6.00 to 6.70

Please report pIC50 for the following compound: `C=CC(=O)Nc1cc(Nc2nccc(-n3cc(CN(C)C)c(-c4ccccc4)n3)n2)c(OC)cc1N1CCCC1`
6.70 to 7.70
